- EXPERIMENTAL_DETAILS: Wnt/beta-catenin pathway activators, primary screen, cell-based, plate reader, single point (AID 743398);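 further: 0% = neutral control wells and 100% = positive control wells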
- CONDITION_DETAILS: Wnt/beta-catenin reporter cell assay, activator, at 9.35 µM
The whole screen tested about 300,000 compounds, of which about 3,600 (1.2%) were called active. No stated cut-off is given here; in the data, active means activation above about 30% (passing the limit was not always enough); inconclusive means no clear call, values can overlap the other calls. Many of the other results were omitted from the sample, so actives are more common in it than they were.
Write down the outcome that applies. Available outcomes: t = active, f = inactive

Problem: Hi, sorry to bother you, what did the test record for CN=c1scc(-c2cc(OC)ccc2OC)n1/N=C/c1c(C)[nH]c2ccccc12 ?
Result: t

Problem: Hi, sorry to bother you, what did the test record for CCCCOCCCNC(=O)C[C@@H]1C[C@@]2(C(=O)OCC)CCCC=C2N(CCC2=CCCCC2)C1=O ?
Result: f

Problem: Hi, sorry to bother you, what did the test record for CC(C)c1cccc(-c2csc(C(O)c3ccccc3)n2)c1 (stereo unspecified) ?
Result: f

Problem: Hi, sorry to bother you, what did the test record for NC(=O)c1ncn([C@@H]2O[C@H](C(=O)O)[C@@H](O)[C@H]2O)n1 ?
Result: f

Problem: Hi, sorry to bother you, what did the test record for Cc1noc(C)c1C(=O)Nc1ccccn1 ?
Result: f

Problem: Hi, sorry to bother you, what did the test record for CCOC(=O)[C@]12CCCC=C1N(Cc1ccc(Cl)cc1Cl)C(=O)[C@H](CC(=O)N1CCCCC1)C2 ?
Result: f

###

- EXPERIMENTAL_DETAILS: Wnt/beta-catenin pathway activators, primary screen, cell-based, plate reader, single point (AID 743398);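 further: 0% = neutral control wells and 100% = positive control wells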
- CONDITION_DETAILS: Wnt/beta-catenin reporter cell assay, activator, at 9.35 µM
Among all 300,000 compounds or so, about 3,600 (1.2%) were called active. No stated cut-off is given here; in the data, active means activation above about 30% (passing the limit was not always enough); inconclusive means no clear call, values can overlap the other calls. The full list was thinned out, with actives kept by preference. Where a SMILES comes first, the peptide text is derived from it. [ ]: non-standard residue; d: D form. The star is where a group is joined. PhAc = O=C(Cc1ccccc1)*
Write down the outcome that applies. Available outcomes: active, inactive

Problem: Hi, sorry to bother you, what did the test record for Cc1ccc([C@H]2N[C@]3(CCCN(Cc4ccccc4)C3=O)[C@H]3C(=O)N(Cc4ccccc4)C(=O)[C@@H]23)cc1 ?
Result: inactive

Problem: Hi, sorry to bother you, what did the test record for CCN1CCCC1CNC(=O)c1ccc2c(c1)NC(=O)/C(=C\c1ccccc1F)S2 (stereo unspecified) ?
Result: inactive

Problem: Hi, sorry to bother you, what did the test record for CN(Cc1ccccc1)C(=O)CCC1CCN(C(=O)c2ccco2)CC1 ?
Result: inactive

Problem: Hi, sorry to bother you, what did the test record for CC1CCCC(C)N1C(=O)COC(=O)c1ccccc1C(=O)c1ccccc1 (stereo unspecified) ?
Result: inactive

Problem: Hi, sorry to bother you, what did the test record for COc1ccc(OC)c(NC(=O)C2CCCN2S(=O)(=O)c2ccc3c(c2)CC(C)N3C(C)=O)c1 (stereo unspecified) ?
Result: inactive

Problem: Hi, sorry to bother you, what did the test record for CC(C)(C)C(c1nc2ccccc2[nH]1)n1c(Cc2csc3ccccc23)nc2ccccc21 (stereo unspecified) ?
Result: inactive

Problem: Hi, sorry to bother you, what did the test record for NC(c1ccccc1)c1csc(NC(=O)Nc2cccc(C(F)(F)F)c2)n1 (stereo unspecified) ?
Result: inactive

Problem: Hi, sorry to bother you, what did the test record for O=C(O)CSCc1nc2ccccc2s1 ?
Result: active

Problem: Hi, sorry to bother you, what did the test record for CC(C)C[C@@H](NC(=O)[C@H]1CCCN1C(=O)Cc1ccccc1)C(N)=O (PhAc-[dP]-[dL]-NH2) ?
Result: inactive

Problem: Hi, sorry to bother you, what did the test record for Cc1csc(NC(=O)C2=COCCO2)n1 ?
Result: inactive

Problem: Hi, sorry to bother you, what did the test record for O=C(O)CCCCc1nc2ccccc2s1 ?
Result: inactive

Problem: Hi, sorry to bother you, what did the test record for Cn1c(-c2ccc(C(=O)c3ccccc3)s2)nc2ccccc21 ?
Result: active

Problem: Hi, sorry to bother you, what did the test record for CC1(C(=O)Nc2cccc3cccnc23)CCN1C(=O)CCC1CCCC1 (stereo unspecified) ?
Result: inactive

Problem: Hi, sorry to bother you, what did the test record for Cn1c(NC(=O)c2ccccc2)nc2ccccc21 ?
Result: inactive

Problem: Hi, sorry to bother you, what did the test record for CCOC(=O)C1(C)CCCN(C(=O)c2cccc(Cl)c2)C1 (stereo unspecified) ?
Result: inactive

Problem: Hi, sorry to bother you, what did the test record for O=C(O)c1ccccc1CSc1nc2ccccc2s1 ?
Result: inactive

Problem: Hi, sorry to bother you, what did the test record for COc1ccc(C(O)c2nc(-c3ccc(OC)nc3)cs2)cc1 (stereo unspecified) ?
Result: inactive

Problem: Hi, sorry to bother you, what did the test record for CCOC(=O)N1CCC(Nc2c(NCCCN3CCN(c4ccc(OC)cc4)CC3)c(=O)c2=O)CC1 ?
Result: active

Problem: Hi, sorry to bother you, what did the test record for CC(C)Nc1ncnc2c1ncn2[C@H]1CN(Cc2ccncc2)C[C@@H](CO)O1 ?
Result: inactive

Problem: Hi, sorry to bother you, what did the test record for CCOC(=O)N1CCC(Nc2c(NCCN3CCN(c4cccc(Cl)c4)CC3)c(=O)c2=O)CC1 ?
Result: inactive

Problem: Hi, sorry to bother you, what did the test record for CNS(=O)(=O)c1ccc(NC(=O)Nc2ccc3c(c2)OCO3)cc1 ?
Result: inactive

###

- EXPERIMENTAL_DETAILS: Wnt/beta-catenin pathway activators, primary screen, cell-based, plate reader, single point (AID 743398);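 further: 0% = neutral control wells and 100% = positive control wells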
- CONDITION_DETAILS: Wnt/beta-catenin reporter cell assay, activator, at 9.35 µM
The campaign covered roughly 300,000 compounds. About 3,600 (1.2%) were called active. No stated cut-off is given here; in the data, active means activation above about 30% (passing the limit was not always enough); inconclusive means no clear call, values can overlap the other calls. Shown is part of a subset that was picked to be rich in actives.
Write down the outcome that applies. Available outcomes: active, inactive

Problem: Hi, sorry to bother you, what did the test record for CN(C)C(=O)N1CCN(C(=O)[C@@H](Cc2ccccc2)NC(=O)[C@H]2O[C@@H](n3ccc(N)nc3=O)[C@H](O)[C@@H]2O)CC1 ?
Result: inactive

Problem: Hi, sorry to bother you, what did the test record for CC1CCN(C(=O)c2ncn3c2C(=O)N[C@@H](C)C3)CC1 ?
Result: inactive

Problem: Hi, sorry to bother you, what did the test record for CCCCn1nnnc1C(c1ccccc1)N1CCN(c2ccccc2OC)CC1 (centres undefined) ?
Result: inactive

Problem: Hi, sorry to bother you, what did the test record for O=C(CC(CC(=O)c1ccccc1)c1ccco1)c1ccccc1 ?
Result: inactive

Problem: Hi, sorry to bother you, what did the test record for COC(=O)Cc1[nH]n(-c2nc3ccccc3s2)c(=O)c1C(C)=Nc1ccc(OC)cc1 ?
Result: inactive

Problem: Hi, sorry to bother you, what did the test record for O=C(N[C@H](Cc1ccccc1)C(=O)N1CCCN(Cc2cccs2)CC1)[C@H]1O[C@@H](n2ccc(=O)[nH]c2=O)[C@H](O)[C@@H]1O ?
Result: inactive

Problem: Hi, sorry to bother you, what did the test record for O=C1/C(=C/c2cccs2)CCc2ccccc21 ?
Result: inactive

Problem: Hi, sorry to bother you, what did the test record for COC(=O)c1c(-c2ccc(OC)cc2)c2c(c3c4ccccc4n(S(=O)(=O)c4ccc(C)cc4)c13)C(=O)N(C)C2 ?
Result: inactive

Problem: Hi, sorry to bother you, what did the test record for Cc1ccc(C(=O)Nc2ccn(C)n2)cc1 ?
Result: active

Problem: Hi, sorry to bother you, what did the test record for CN(C)S(=O)(=O)c1cc(C(=O)Nc2ccn(C)n2)c(Cl)cc1Cl ?
Result: inactive

Problem: Hi, sorry to bother you, what did the test record for COc1cc(OC)cc(-c2cc3ccc(F)cc3cn2)c1 ?
Result: active

Problem: Hi, sorry to bother you, what did the test record for COc1ccc(C(C)(O)c2nc(-c3cc(F)cc(F)c3)cs2)cc1 (centres undefined) ?
Result: inactive

Problem: Hi, sorry to bother you, what did the test record for O=C(c1ccc(F)cc1)n1cc(C(=S)N2CCOCC2)c2ccccc21 ?
Result: inactive

Problem: Hi, sorry to bother you, what did the test record for COc1ccc(N=Nc2ccc(O)c(P(=O)(c3ccccc3)c3ccccc3)c2)cc1 ?
Result: inactive

###

- EXPERIMENTAL_DETAILS: Wnt/beta-catenin pathway activators, primary screen, cell-based, plate reader, single point (AID 743398);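 further: 0% = neutral control wells and 100% = positive control wells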
- CONDITION_DETAILS: Wnt/beta-catenin reporter cell assay, activator, at 9.35 µM, stronger effect = higher value
Screen size: about 300,000 compounds; about 3,600 (1.2%) were called active. Only a selection was taken, and actives are over-represented in it overall.
PARAMETER: activation (%)
Only the number, expressed in %, is required.

Looking up CC(=NNC(N)=O)c1ccc(Cl)c(-n2cccc2)c1 , I see its activation listed as -7.68

Looking up Cc1cc(CO)nn1-c1ccc([N+](=O)[O-])cc1 , I see its activation listed as 3.25

Looking up Cc1cccc2c1N(CC(=O)OC(C)C)C(=O)C2=O , I see its activation listed as -1.39

Looking up O=C1c2ccccc2NC(c2ccccn2)N1NS(=O)(=O)c1ccccc1 (configuration not stated) , I see its activation listed as 31

Looking up COc1cccc(/C=C/c2ccc3ccccc3n2)c1OC(C)=O , I see its activation listed as -2.71

Looking up CCCCCCCCN1C(=O)[C@@H](CC(=O)NCCCC)C[C@@]2(C(=O)OC)C1=C[C@H](C(C)(C)C)O[C@@H]2C , I see its activation listed as -3

Looking up NC(=O)COC(=O)/C=C/c1ccc2ccccc2n1 , I see its activation listed as 48.3
